Test: Pharmacokinetic/pharmacodynamic analysis in SNU-1411/NOD-SCID mice, 7 days
Type: in vivo, mouse (NOD-SCID)
Conditions: NOD-SCID, mouse, plasma, oral; 20 ng/mL equivalent to 10× IC50; read-out: total plasma concentration equivalent to free IC50
property-measured: IC50 (ng/mL)
Write it as a number; the unit ng/mL goes unstated.

Prompt: Given Cc1c(-c2ccnc(C(F)(F)F)c2)ncn1CC(=O)Nc1ccc(-c2cnccn2)cn1 , state its recorded IC50.
Completion: 2

----------
Experiment: In vivo pharmacokinetics
Conditions: beagle, dog, dose i.v./p.o. 2/5 mg/kg, read-out: T½ (converted)
property-measured: half-life
Kindly format the answer as number then unit.

Prompt: Given Cc1c(-c2ccnc(C(F)(F)F)c2)ncn1CC(=O)Nc1ccc(-c2cnccn2)cn1 , state its recorded half-life.
Completion: 48 min
